Each record here notes measured melting point.

Here's what some known entries look like.
Notebook: CCOC(=O)CCCN1CCC2(CC1)CN(c1ccc(C#N)cc1)C(=O)O2 , melting point read as 78 to 80 °C

Notebook: O=C(Nc1cccc(S(=O)(=O)NC2CC2)c1)c1cnn2c(C(F)(F)F)cc(-c3ccc(Cl)c(Cl)c3)nc12 , melting point read as 248 °C

Notebook: Cc1ccccc1-n1c(=O)nc(N(C)C)n(C)c1=O , melting point read as 159 to 162 °C

---
Notebook: CCOC(=O)c1c(C(F)(F)F)ncc(C(=O)O)c1OC(C)C , melting point read as 97 to 99 °C

Notebook: c1cn(-c2ccnc(-n3ccnc3)n2)cn1 , melting point read as 131 to 132 °C
